Origin of measurements: patent US20190359697A1

Target: T1, CD19 (UniProt P15391 20-556)
T1 chain: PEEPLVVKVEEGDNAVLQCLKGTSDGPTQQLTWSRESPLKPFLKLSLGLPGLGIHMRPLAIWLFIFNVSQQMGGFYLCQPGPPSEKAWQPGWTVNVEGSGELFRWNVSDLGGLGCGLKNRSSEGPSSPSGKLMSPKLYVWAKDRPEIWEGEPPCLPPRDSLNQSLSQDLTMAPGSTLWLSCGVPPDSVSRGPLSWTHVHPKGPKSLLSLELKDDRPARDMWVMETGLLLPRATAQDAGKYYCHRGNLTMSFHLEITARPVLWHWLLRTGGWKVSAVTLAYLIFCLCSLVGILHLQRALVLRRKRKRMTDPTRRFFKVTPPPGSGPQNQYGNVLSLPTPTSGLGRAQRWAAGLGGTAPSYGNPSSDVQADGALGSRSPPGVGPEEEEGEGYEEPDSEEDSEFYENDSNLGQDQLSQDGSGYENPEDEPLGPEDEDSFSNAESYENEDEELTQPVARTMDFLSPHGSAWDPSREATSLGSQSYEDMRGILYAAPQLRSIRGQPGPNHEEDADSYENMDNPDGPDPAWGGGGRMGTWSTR
Test: flow cytometry cell binding; FIG. 6
Would you mind telling me the reported log10(EC50) of each entry?
The figures below represent log10 of EC50, where EC50 is stated in nM.

Reference set, count: 5
INSERT INTO measurements (binder, experimental_readout, measured_number) VALUES
  ('hFMCL2a-LCNT/hFMCH4b (Fab, V domains shown) VH: QVQLQESGPGLVKPSETLSVTCTVSGVSLPDYGVSWIRQPPGKGLEWLGVIWGSETTYYNPSLKSRLTISKDNSKNQVSLKMSSLTAADTAVYYCAKHYYYGGSYAMDYWGQGTLVTVSS VL: DIQMTQSPSSLSASVGDRVTITCRASQDISKYLNWYQQKPGKAVKLLIYHTSRLHSGVPSRFSGSGSGTDYTLTISSLQPEDFATYYCQQGATLPYTFGQGTKLEIK', 'log10(EC50)', 0.21),
  ('hFMCL2c-LCNT/hFMCH4b (Fab, V domains shown) VH: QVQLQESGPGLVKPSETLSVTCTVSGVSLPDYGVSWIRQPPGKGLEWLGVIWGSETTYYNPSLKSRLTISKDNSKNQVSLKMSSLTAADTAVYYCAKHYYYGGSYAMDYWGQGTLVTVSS VL: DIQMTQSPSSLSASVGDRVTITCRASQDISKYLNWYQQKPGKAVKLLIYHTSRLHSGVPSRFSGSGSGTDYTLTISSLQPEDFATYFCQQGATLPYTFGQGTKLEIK', 'log10(EC50)', 0.14),
  ('hFMCL2/H4z (antibody, V domains shown) VH: QVQLQESGPGLVKPSETLSVTCTVSGVSLPDYGVSWIRQPPGKGLEWLGVIWGSETTYYNSSLKSRLTISKDNSKNQVSLKMSSLTAADTAVYYCAKHYYYGGSYAMDYWGQGTLVTVSS VL: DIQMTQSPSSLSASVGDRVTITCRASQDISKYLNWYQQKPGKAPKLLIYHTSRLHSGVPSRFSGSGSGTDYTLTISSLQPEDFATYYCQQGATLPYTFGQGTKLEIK', 'log10(EC50)', 1.09),
  ('hFMCL2a-LCNT/hFMCH4c (Fab, V domains shown) VH: QVQLQESGPGLVKPSETLSVTCTVSGVSLPDYGVSWIRQPPGKGLEWLGVIWGSETTYYNSALKSRLTISKDNSKNQVSLKMSSLTAADTAVYYCAKHYYYGGSYAMDYWGQGTLVTVSS VL: DIQMTQSPSSLSASVGDRVTITCRASQDISKYLNWYQQKPGKAVKLLIYHTSRLHSGVPSRFSGSGSGTDYTLTISSLQPEDFATYYCQQGATLPYTFGQGTKLEIK', 'log10(EC50)', 0.23),
  ('hFMCL2b-LCNT/hFMCH4b (Fab, V domains shown) VH: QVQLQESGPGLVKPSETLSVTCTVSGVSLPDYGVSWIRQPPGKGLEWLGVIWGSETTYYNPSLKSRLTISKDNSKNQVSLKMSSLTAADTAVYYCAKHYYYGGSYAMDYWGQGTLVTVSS VL: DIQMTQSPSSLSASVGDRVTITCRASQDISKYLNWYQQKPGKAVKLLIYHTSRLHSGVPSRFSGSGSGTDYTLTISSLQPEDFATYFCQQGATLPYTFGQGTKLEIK', 'log10(EC50)', 0.09);

Asked: For the binder shown here, hFMCL2b-LCNT/hFMCH4c (Fab, V domains shown) VH: QVQLQESGPGLVKPSETLSVTCTVSGVSLPDYGVSWIRQPPGKGLEWLGVIWGSETTYYNSALKSRLTISKDNSKNQVSLKMSSLTAADTAVYYCAKHYYYGGSYAMDYWGQGTLVTVSS VL: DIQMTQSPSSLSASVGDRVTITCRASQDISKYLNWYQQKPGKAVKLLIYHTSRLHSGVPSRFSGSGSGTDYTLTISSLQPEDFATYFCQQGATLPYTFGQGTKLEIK , give the reported log10(EC50).
Given back: 0.10
